Assay: growth inhibition, single agent and combos, cell-based, chromothripsis tumors, cisplatin or BGB combos (AID 1671450);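 further: cells exposed to compound for four days; 0% = vehicle DMSO and 100% = cell killing by high DMSO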
Settings: HDN33 neuroblastoma cells, at 0.5 µM, stronger effect = higher value
Observed property: inhibition (%)
Output spec: scalar in %, unitless text.

Study these solved cases before continuing.
{"columns": ["Molecule", "Value observed"],
 "data": [
  ["NC(=S)NN=Cc1ncccc1N", 11.9],
  ["C=C1C(=O)O[C@@H]2C=C(C)CCC=C(C)CC[C@@H]12", -17.6],
  ["CC1CN(c2c(F)c(N)c3c(=O)c(C(=O)O)cn(C4CC4)c3c2F)CC(C)N1 (stereo not drawn)", -0.91]
]}

q: What value of measured inhibition is listed for C[n+]1ccc(-c2c3nc(c(-c4cc[n+](C)cc4)c4ccc([nH]4)c(-c4cc[n+](C)cc4)c4nc(c(-c5cc[n+](C)cc5)c5ccc2[nH]5)C=C4)C=C3)cc1 ?
a: -31.4

q: What value of measured inhibition is listed for C[C@@H]1O[C@@H](O[C@@H]2[C@@H](O)[C@H](OCCc3ccc(O)c(O)c3)O[C@H](CO)[C@H]2OC(=O)C=Cc2ccc(O)c(O)c2)[C@H](O)[C@H](O)[C@H]1O ?
a: 5.6

q: What value of measured inhibition is listed for COc1nc(N)nc2c1ncn2[C@@H]1O[C@H](CO)[C@@H](O)[C@H]1O ?
a: -10.9

q: What value of measured inhibition is listed for O=c1ccn(C2CC(O)C(CO)O2)c(=O)[nH]1 (stereo not drawn) ?
a: -36.9

q: What value of measured inhibition is listed for Cc1c(Br)cc(NCC(=O)N/N=C/c2cc([N+](=O)[O-])ccc2O)cc1Br ?
a: -0.34

q: What value of measured inhibition is listed for CC(C)(C#N)c1ccc(N2C(=O)OCc3cnc4ccc(-c5cnc6ccccc6c5)cc4c32)cc1 ?
a: 3.13

---

Readings of inhibition for the listed molecules
Test system: Hepatitis C virus NS3 helicase
Experiment: blockers of NS3h binding to ssDNA – biochemical, fluorescence polarization, LOPAC1280 library, primary screen (AID 687035)
Details: Purified HCV NS3 helicase, Cy5-dT15 ssDNA binding fluorescence polarization; stronger effect = higher value; concentration not given here
Output spec: scalar in %, unitless text.

Study these solved cases before continuing.
{"columns": ["Molecule", "System tested", "Unit string", "Value observed"],
 "data": [
  ["CCCCCCCCCC(=O)NC(CN1CCOCC1)[C@H](O)c1ccccc1 (stereo partly drawn)", "Hepatitis C virus NS3 helicase", "%", 2],
  ["CCc1c(C(=O)NCCc2ccc(N3CCCCC3)cc2)[nH]c2ccc(Cl)cc12", "Hepatitis C virus NS3 helicase", "%", 0]
]}

q: What value of measured inhibition is listed for NC[C@H]1O[C@@H](n2cnc3c(N)ncnc32)[C@H](O)[C@@H]1O ?
a: -3

q: What value of measured inhibition is listed for CCC(=O)N1CCN(C(=O)c2ccccc2)CC1 ?
a: -1

---

Readings of cell count for the listed molecules
Assay: viability loss with induced miR-34 in A549 – imaging, A549 dox-inducible miR-34, nuclei and caspase counts, primary screen (AID 1347080)
Conditions: A549 miR-34 inducible, Hoechst nuclei count, 48 h; measured here: total cells with miR-34 induction; stronger effect = lower value
Just the number.

Study these solved cases before continuing.
{"columns": ["Molecule", "Observed property", "Value observed"],
 "data": [
  ["COc1c(C=O)c(O)cc2c1C(=O)c1ccccc1C2=O", "cell count", 2810],
  ["CCCCC/C=C\\C/C=C\\CCCCCCCC(=O)O[C@@H](CO)COC(=O)CCCCCCCCCCCCCCCCC", "cell count", 6430],
  ["COc1ccc(S(=O)(=O)N(C(C)=O)c2ccccc2C=Cc2cc[n+]([O-])cc2)cc1", "cell count", 1240]
]}

q: What value of measured cell count is listed for O=C(O)CCCCCNC(=O)NC1CCCCC1 ?
a: 9190

q: What value of measured cell count is listed for O=C(CCCCCCC(=O)Nc1ccc(C2OC(CSc3nc(-c4ccccc4)c(-c4ccccc4)o3)CC(c3ccc(CO)cc3)O2)cc1)NO (configuration not stated) ?
a: 6200
